Species on record: Rattus norvegicus
Assay: Displacement of [3H]BTX-B from VGSC site 2 in rat forebrain membranes at 40 uM incubated at 37 degC for 60 mins
Type: cell membranes
Conditions: Brain, Membrane
Criterion: inhibition meeting or surpassing 30%. Met: Y. Not met: N.

Answered examples (4):
CCCCCCCC1(c2cccc(Cl)c2)NC(=O)N(CCc2ccccc2)C1=O (stereo not drawn) = N
CCCCCCCC1(c2cccc(Cl)c2)NC(=O)N(CC2CC2)C1=O (stereo not drawn) = Y
C#C/C(=C\CCCCCC)c1cccc(Cl)c1 = Y
CC(C)=CCC/C(C)=C/CC(O)(C(N)=O)c1cccc(Cl)c1 (stereo not drawn) = Y

Query :: Is the recorded value of inhibition equal to or greater than 30% for this molecule? CC(C)=CCCC(C)CCC(O)(C(N)=O)c1cccc(Cl)c1 (stereo not drawn)
Result :: Y

Query :: # repeat for NC(=O)C(O)(CCCCOCc1ccccc1)c1cccc(Cl)c1 (stereo not drawn)
Result :: Y

Query :: Thanks! And CCCCCCCC(O)(c1cccc(Cl)c1)c1ccccn1 (stereo not drawn) ?
Result :: N

Query :: How about CCCCCCCC1(c2cccc(Cl)c2)NC(=O)N(Cc2ccccc2)C1=O (stereo not drawn) ?
Result :: Y
